- testedOn: T1, cMetECDHis (human, UniProt P08581 25-932, limits assumed, biotinylated in the cross-block ELISA of Example 17)
- T1 construct: Expressed in HEK-293F cells; also called soluble cMetECDHis; biotinylated cMetECDHis
- measurementNotes: cross-block ELISA; competitor 068
Quick reference for residual binding, % of no competitor among some binders

| binder | residual binding, % of no competitor [%] |
| --- | --- |
| anti-c-Met HuMab 045 (IgG1) (antibody, V domains shown, also called TH1016-045; PC1016-045) VH: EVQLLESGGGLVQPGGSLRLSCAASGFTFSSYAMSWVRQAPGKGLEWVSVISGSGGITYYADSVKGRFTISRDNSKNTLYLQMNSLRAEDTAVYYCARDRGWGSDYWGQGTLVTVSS VL: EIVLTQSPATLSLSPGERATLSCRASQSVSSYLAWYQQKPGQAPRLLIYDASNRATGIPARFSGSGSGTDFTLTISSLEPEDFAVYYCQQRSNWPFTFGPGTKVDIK | 113 |
| anti-c-Met HuMab 005 (IgG1) (antibody, V domains shown, also called TH1016-005; PC1016-005) VH: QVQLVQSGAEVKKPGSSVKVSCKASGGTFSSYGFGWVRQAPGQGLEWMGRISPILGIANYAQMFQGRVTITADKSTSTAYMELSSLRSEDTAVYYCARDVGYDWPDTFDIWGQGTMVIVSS VL: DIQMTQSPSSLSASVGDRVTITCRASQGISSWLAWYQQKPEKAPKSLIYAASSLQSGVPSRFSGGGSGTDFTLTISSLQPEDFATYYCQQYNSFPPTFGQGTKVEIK | 129 |
| anti-c-Met HuMab 006 (IgG1) (antibody, V domains shown, also called TH1016-006; PC1016-006) VH: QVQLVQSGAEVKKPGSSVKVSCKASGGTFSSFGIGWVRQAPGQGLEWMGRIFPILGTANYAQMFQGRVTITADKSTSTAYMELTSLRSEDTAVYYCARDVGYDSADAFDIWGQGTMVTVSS VL: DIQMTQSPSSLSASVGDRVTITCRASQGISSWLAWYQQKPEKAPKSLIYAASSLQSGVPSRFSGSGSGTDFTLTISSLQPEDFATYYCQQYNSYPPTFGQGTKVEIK | 129 |
| anti-c-Met HuMab 008 (IgG1) (antibody, V domains shown, also called TH1016-008; PC1016-008) VH: EVQLVQSGAEVKKPGESLKISCKGSGYSFTSYWIGWVRQMPGKGLEWMGIIYPGDSETRYSPSFQGQVTISADKSISTAYLQWSSLKASDTAMYYCARQEITGEFDYWGQGTLVTVSS VL: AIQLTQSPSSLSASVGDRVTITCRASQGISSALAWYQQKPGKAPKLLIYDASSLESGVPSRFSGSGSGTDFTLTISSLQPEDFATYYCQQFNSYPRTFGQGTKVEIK | 112 |
| anti-c-Met HuMab 181 (IgG1) (antibody, V domains shown, also called TH1016-181; PC1016-181) VH: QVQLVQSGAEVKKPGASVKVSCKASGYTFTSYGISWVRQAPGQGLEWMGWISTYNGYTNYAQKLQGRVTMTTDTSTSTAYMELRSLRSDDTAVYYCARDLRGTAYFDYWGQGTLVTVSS VL: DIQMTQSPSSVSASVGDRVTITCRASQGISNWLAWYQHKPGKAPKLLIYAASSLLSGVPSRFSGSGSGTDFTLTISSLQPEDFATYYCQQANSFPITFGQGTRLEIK | 6.5 |
